# System: Jurkat
# TEST: Cell proliferation modulatory activity, Jurkat
# Format: cell-based
# CONDITION LABEL: Homo sapiens
Items are presented alongside their recorded log10(IC50).
OBSERVED PROPERTY: log10(IC50) (log10 of the value in µM)

- COMPOUND: "O=C(O)c1ccc2c(c1)nc(Nc1ccccc1)c1nc(NCCN3CCOCC3)ncc12"
  log10(IC50): 0.76
- COMPOUND: "Nc1nc2cc(C(=O)O)ccc2c2cnc(NC3CC3)nc12"
  log10(IC50): 1.74
- COMPOUND: "CC(C)OC(=O)Nc1ccc2c(c1)nc(Nc1cccc(C(F)(F)F)c1)c1nc(NC3CC3)ncc12"
  log10(IC50): 0.06
- COMPOUND: "CN(C)CCNc1nc2cc(C(=O)O)ccc2c2cnc(NC3CC3)nc12 [drawing 1642]"
  log10(IC50): 1.53
- COMPOUND: "O=C(O)c1ccc2c(c1)nc(NC1CC1)c1nc(SCc3ccccc3Cl)ncc12 [drawing 1614]"
  log10(IC50): 1.47
- COMPOUND: "CN(C)C(=O)c1ccc2c(c1)nc(NC1CC1)c1nc(NC3CC3)ncc12"
  log10(IC50): -0.23
- COMPOUND: "Cc1ccc(Nc2nc3cc(C(=O)O)ccc3c3cnccc23)nc1"
  log10(IC50): 0.10
- COMPOUND: "O=C(NC1CC1)c1ccc2c(c1)nc(Nc1cccc(C(F)(F)F)c1)c1nc(NC3CC3)ncc12"
  log10(IC50): 0.59
- COMPOUND: "CCCNc1ncc2c(n1)c(NC1CC1)nc1cc(C(=O)O)ccc12 [drawing 1645]"
  log10(IC50): 0.97
- COMPOUND: "COC(=O)c1ccc2c(c1)nc(Nc1cccc(Cl)c1)c1nc(NCCC(N)=O)ncc12"
  log10(IC50): 0.64
- COMPOUND: "C#Cc1cccc(Nc2nc3cc(C(=O)N(C)C)ccc3c3cncnc23)c1"
  log10(IC50): 0.07
- COMPOUND: "O=C(O)c1ccc2c(c1)nc(Nc1cccc(C(F)(F)F)c1)c1nc(NC3CC3)ncc12 [drawing 1596]"
  log10(IC50): 0.50
- COMPOUND: "C#Cc1cccc(Nc2nc3cc(C(=O)O)ccc3c3cnc(NCCCN4CCOCC4)nc23)c1"
  log10(IC50): 0.57
- COMPOUND: "CC1CCCCN1CCCNc1ncc2c(n1)c(Nc1ccc(F)c(Cl)c1)nc1cc(C(=O)O)ccc12 (stereo not drawn) [drawing 1629]"
  log10(IC50): 0.46
- COMPOUND: "O=C(O)c1ccc2c(c1)nc(Nc1cc(F)cc(F)c1)c1nc(NC3CC3)ncc12"
  log10(IC50): 0.78
- COMPOUND: "O=C(O)c1ccc2c(c1)nc(NC1CC1)c1nc(Nc3cccc4ccccc34)ncc12"
  log10(IC50): 1.37
- COMPOUND: "CC(=O)Nc1ccc2c(c1)nc(Nc1cccc(C(F)(F)F)c1)c1nc(NC3CC3)ncc12"
  log10(IC50): 0.09
- COMPOUND: "CC(C)OCCCNc1ncc2c(n1)c(NC1CC1)nc1cc(C(=O)O)ccc12"
  log10(IC50): 1.22
- COMPOUND: "O=C(O)c1ccc2c(c1)nc(Nc1ccc(F)c(Cl)c1)c1nc(NCc3cccnc3)ncc12"
  log10(IC50): 0.18
- COMPOUND: "O=C(O)c1ccc2c(c1)nc(Nc1ccc(Oc3ccccc3)cc1)c1ccncc12"
  log10(IC50): 1.36
- COMPOUND: "NC(=O)c1ccc2c(c1)nc(Nc1cccc(C(F)(F)F)c1)c1nc(NC3CC3)ncc12"
  log10(IC50): 0.06
- COMPOUND: "NC(=O)c1ccc2c(c1)nc(NC1CC1)c1nc(NC3CC3)ncc12"
  log10(IC50): -0.30
- COMPOUND: "C#Cc1cccc(Nc2nc3cc(C(=O)O)ccc3c3cnc(NCC4CC4)nc23)c1 [drawing 1606]"
  log10(IC50): -0.37
- COMPOUND: "O=C(O)c1ccc2c(c1)nc(NC1CC1)c1nc(Nc3cc(F)ccc3F)ncc12"
  log10(IC50): 1.20
- COMPOUND: "O=C(O)c1ccc2c(c1)nc(NC1CC1)c1nc(Nc3ccc(F)c(Cl)c3)ncc12"
  log10(IC50): 1.42
- COMPOUND: "O=C(O)c1ccc2c(c1)nc(Nc1ccc(F)c(Cl)c1)c1nc(NCc3ccccn3)ncc12"
  log10(IC50): 0.41
- COMPOUND: "CCOc1ccc(Nc2ncc3c(n2)c(NC2CC2)nc2cc(C(=O)O)ccc23)cc1"
  log10(IC50): 0.97
- COMPOUND: "O=C(O)c1ccc2c(c1)nc(Nc1ccccc1)c1nc(Nc3ccccc3)ncc12"
  log10(IC50): 0.95
- COMPOUND: "CCCNc1ncc2c(n1)c(Nc1ccccc1)nc1cc(C(=O)O)ccc12"
  log10(IC50): 0.66
- COMPOUND: "O=C(O)c1ccc2c(c1)nc(NC1CC1)c1nc(NCCc3ccccc3)ncc12"
  log10(IC50): -0.08
- COMPOUND: "CC(C)C(CO)Nc1ncc2c(n1)c(NC1CC1)nc1cc(C(=O)O)ccc12 (stereo not drawn)"
  log10(IC50): 1.65
- COMPOUND: "CNC(=O)c1ccc2c(c1)nc(Nc1cccc(Cl)c1)c1ccncc12"
  log10(IC50): 1.14
- COMPOUND: "NCCNC(=O)c1ccc2c(c1)nc(Nc1cccc(Cl)c1)c1ccncc12"
  log10(IC50): 0.88
- COMPOUND: "O=C(O)c1ccc2c(c1)nc(NC1CC1)c1nc(Nc3ccccc3)ncc12 [drawing 1618]"
  log10(IC50): 0.66

* * *

# SUBJECT OF TEST: recombinant human PIM1 (Homo sapiens (Human))
# Sequence (P11309 whole entry): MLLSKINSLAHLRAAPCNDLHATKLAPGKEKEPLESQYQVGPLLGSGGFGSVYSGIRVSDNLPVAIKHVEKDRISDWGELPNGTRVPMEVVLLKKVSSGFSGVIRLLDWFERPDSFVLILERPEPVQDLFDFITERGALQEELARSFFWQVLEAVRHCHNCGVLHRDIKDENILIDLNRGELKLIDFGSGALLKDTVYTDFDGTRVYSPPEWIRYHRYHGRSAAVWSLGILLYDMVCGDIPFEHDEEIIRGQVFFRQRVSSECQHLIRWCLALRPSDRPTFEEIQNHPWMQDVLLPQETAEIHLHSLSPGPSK
# TEST: PIM-1 kinase activity in cell-free in vitro assay
# Assay type: biochemical
# CONDITION LABEL: cell-free assay
Items are presented alongside their recorded IC50.
OBSERVED PROPERTY: IC50 (nM)

- COMPOUND: "CN1CCC(Nc2nc3cc(-c4nnn[nH]4)ccc3c3sccc23)CC1"
  CENSORING QUALIFIER: "="
  MEASURED VALUE: 161
- COMPOUND: "CCOCCNc1ncc2c(n1)c(N(C)c1ccccc1)nc1cc(C(=O)O)ccc12"
  CENSORING QUALIFIER: "="
  MEASURED VALUE: 649
- COMPOUND: "CCN1CCC[C@@H]1CNc1nc2cc(-c3nnn[nH]3)ccc2c2sccc12"
  CENSORING QUALIFIER: "="
  MEASURED VALUE: 65
- COMPOUND: "NC(=O)c1cccc(Nc2nc3cc(C(=O)O)ccc3c3cnccc23)c1"
  CENSORING QUALIFIER: "="
  MEASURED VALUE: 160
- COMPOUND: "CSc1ncc2c(n1)c(N(C)c1ccccc1)nc1cc(C(=O)O)ccc12"
  CENSORING QUALIFIER: "="
  MEASURED VALUE: 1090
- COMPOUND: "O=C(O)c1ccc2c(c1)nc(Nc1ccc(OC(F)(F)F)cc1)c1ccncc12"
  CENSORING QUALIFIER: "="
  MEASURED VALUE: 668
- COMPOUND: "O=C(O)c1ccc2c(c1)nc(Nc1cccc(CO)c1)c1ccncc12"
  CENSORING QUALIFIER: "="
  MEASURED VALUE: 321
- COMPOUND: "CC(C)OCCNc1ncc2c(n1)c(NC1CC1)nc1cc(C(=O)O)ccc12"
  CENSORING QUALIFIER: ">"
  MEASURED VALUE: 1100
- COMPOUND: "CN1CCCCC1CNc1nc2cc(-c3nnn[nH]3)ccc2c2cscc12 (stereo not shown)"
  CENSORING QUALIFIER: "="
  MEASURED VALUE: 54
- COMPOUND: "c1cc2c(NCCN3CCCCC3)nc3cc(-c4nnn[nH]4)ccc3c2s1"
  CENSORING QUALIFIER: "="
  MEASURED VALUE: 313
- COMPOUND: "N#Cc1ccc2c(c1)nc(NC1CCNCC1)c1ccsc12"
  CENSORING QUALIFIER: "="
  MEASURED VALUE: 416
- COMPOUND: "CCN1CCCC1CNc1nc2cc(C(=O)O)ccc2c2sccc12 (stereo not shown)"
  CENSORING QUALIFIER: "="
  MEASURED VALUE: 100
- COMPOUND: "Cn1nc(-c2ccccc2)cc1Nc1nc2cc(C(=O)O)ccc2c2cnccc12"
  CENSORING QUALIFIER: "="
  MEASURED VALUE: 914
- COMPOUND: "CCN1CCC[C@H]1CNc1nc2cc(-c3nnn[nH]3)ccc2c2sccc12"
  CENSORING QUALIFIER: "="
  MEASURED VALUE: 118
- COMPOUND: "CNc1ncc2c(n1)c(N(C)c1ccccc1)nc1cc(C(=O)O)ccc12"
  CENSORING QUALIFIER: "="
  MEASURED VALUE: 147
- COMPOUND: "O=C(O)c1ccc2c(c1)nc(Nc1ccc(Cl)c(C(F)(F)F)c1)c1ccncc12"
  CENSORING QUALIFIER: "="
  MEASURED VALUE: 408
- COMPOUND: "O=C(O)c1ccc2c(c1)nc(Nc1cccc(Cl)c1)c1cnccc12"
  CENSORING QUALIFIER: "="
  MEASURED VALUE: 122
- COMPOUND: "Cc1cccc(Nc2nc3cc(C(=O)O)ccc3c3cnccc23)c1"
  CENSORING QUALIFIER: "="
  MEASURED VALUE: 177
- COMPOUND: "CCN1CCCC1CNc1nc2cc(-c3nnn[nH]3)ccc2c2sccc12 (stereo not shown)"
  CENSORING QUALIFIER: "="
  MEASURED VALUE: 98
- COMPOUND: "NC(=O)c1cc(F)cc(Nc2nc3cc(C(=O)O)ccc3c3cnccc23)c1"
  CENSORING QUALIFIER: "="
  MEASURED VALUE: 93
- COMPOUND: "O=C(O)c1ccc2c(c1)nc(Nc1ccc(Oc3ccccc3)cc1)c1ccncc12"
  CENSORING QUALIFIER: ">"
  MEASURED VALUE: 1100
- COMPOUND: "N#Cc1cc(F)cc(Nc2nc3cc(C(=O)O)ccc3c3cnccc23)c1"
  CENSORING QUALIFIER: "="
  MEASURED VALUE: 96
